# IC50 listing for each entry below
test system: LNCaP95 cells; assay: Antiproliferative assay (resazurin, 72 h) in LNCaP95 cells; type: cell-based; details: LNCaP-95; antiproliferation, LNCaP95, 72 h, mean of three independent experiments; read-out: IC50 (μM) LNCaP95
I only need the number, in µM, no unit after it.

Item under review: N#Cc1ccc(NC(=O)c2cc(F)ccc2O)c(F)c1 . Reported IC50?
0.231

// query: N#Cc1cc(NC(=O)c2cc(F)ccc2O)ccc1C(F)(F)F
0.396

Follow-up entry: O=C(Nc1ccc(C(F)(F)F)c(C(F)(F)F)c1)c1cc(C(F)(F)F)ccc1O
0.113

More entries:
Need IC50, item O=C(Nc1ccnc(C(F)(F)F)c1)c1cc(F)ccc1O
0.392

The values you see were collected from paper PMC10222209.
